From: paper PMC7397249

# TEST TARGET: p300 (Homo sapiens, UniProt Q09472)
# Construct: p300 (aa 1284–1673, 30 nM); purchased Reaction Biology Corporation
# Sequence (Q09472 1284-1673): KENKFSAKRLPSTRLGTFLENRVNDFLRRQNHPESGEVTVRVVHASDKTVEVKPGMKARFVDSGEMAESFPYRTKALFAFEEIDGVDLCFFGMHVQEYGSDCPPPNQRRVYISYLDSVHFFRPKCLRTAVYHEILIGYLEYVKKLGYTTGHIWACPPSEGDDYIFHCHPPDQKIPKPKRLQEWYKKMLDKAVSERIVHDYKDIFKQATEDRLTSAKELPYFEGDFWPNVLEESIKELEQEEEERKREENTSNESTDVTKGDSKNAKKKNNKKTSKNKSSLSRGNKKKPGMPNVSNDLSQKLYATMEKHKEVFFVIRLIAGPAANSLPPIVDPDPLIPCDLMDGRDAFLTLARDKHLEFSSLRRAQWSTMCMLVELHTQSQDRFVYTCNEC
# ASSAY DETAILS: HotSpot HAT activity assay, p300
# Format: biochemical
# CONDITION NOTES: 10-dose, triplicate, from 200 μM; histone H3, [acetyl-3H]-acetyl-CoA
Each record is given MET if its reported IC50 is strictly below 2 µM. Records at or above 2 µM are given NOT MET.

INSERT INTO assay_data (smiles_repr, class_label) VALUES
  ('O=C1/C(=C/c2ccccc2Br)CCC/C1=C\c1ccccc1Br', 'MET'),
  ('O=C1/C(=C/c2ccccc2Br)CN(C(=O)Cc2ccccc2)C/C1=C\c1ccccc1Br', 'MET'),
  ('O=C1/C(=C/c2ccccc2Br)CN(CC(=O)c2ccccc2)C/C1=C\c1ccccc1Br', 'MET'),
  ('O=C1/C(=C/c2ccccc2Br)COC/C1=C\c1ccccc1Br', 'NOT MET'),
  ('O=C1/C(=C/c2ccccc2Br)CN(Cc2ccccc2)C/C1=C\c1ccccc1Br', 'NOT MET'),
  ('O=C1/C(=C/c2ccccc2Br)CN(CCC(=O)c2ccccc2)C/C1=C\c1ccccc1Br', 'MET');

---

Recorded measurements of IC50, one per entry
# TEST TARGET: PRC2/EZH2 (Homo sapiens, UniProt Q15910)
# Sequence (Q15022 whole entry): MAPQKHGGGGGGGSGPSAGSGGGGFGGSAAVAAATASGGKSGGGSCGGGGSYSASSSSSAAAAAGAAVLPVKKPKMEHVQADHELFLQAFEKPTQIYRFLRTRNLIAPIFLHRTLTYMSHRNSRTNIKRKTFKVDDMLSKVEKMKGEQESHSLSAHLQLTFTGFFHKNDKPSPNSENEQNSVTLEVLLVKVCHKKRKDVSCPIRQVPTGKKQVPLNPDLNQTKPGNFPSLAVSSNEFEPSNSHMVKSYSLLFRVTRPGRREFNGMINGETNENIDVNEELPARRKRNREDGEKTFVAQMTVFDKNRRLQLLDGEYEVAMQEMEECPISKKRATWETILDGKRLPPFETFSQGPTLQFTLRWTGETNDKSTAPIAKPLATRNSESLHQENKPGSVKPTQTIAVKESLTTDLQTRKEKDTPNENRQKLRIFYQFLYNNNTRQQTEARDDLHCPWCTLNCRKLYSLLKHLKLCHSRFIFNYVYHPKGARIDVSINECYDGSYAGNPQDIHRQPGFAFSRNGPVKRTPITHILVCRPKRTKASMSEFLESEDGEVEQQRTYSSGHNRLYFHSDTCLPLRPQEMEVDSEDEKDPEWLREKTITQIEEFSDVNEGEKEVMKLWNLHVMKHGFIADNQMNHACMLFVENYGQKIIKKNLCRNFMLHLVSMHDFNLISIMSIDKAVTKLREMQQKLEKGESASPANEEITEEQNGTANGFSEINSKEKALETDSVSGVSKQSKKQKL
# Sequence (Q09028 whole entry, further chain): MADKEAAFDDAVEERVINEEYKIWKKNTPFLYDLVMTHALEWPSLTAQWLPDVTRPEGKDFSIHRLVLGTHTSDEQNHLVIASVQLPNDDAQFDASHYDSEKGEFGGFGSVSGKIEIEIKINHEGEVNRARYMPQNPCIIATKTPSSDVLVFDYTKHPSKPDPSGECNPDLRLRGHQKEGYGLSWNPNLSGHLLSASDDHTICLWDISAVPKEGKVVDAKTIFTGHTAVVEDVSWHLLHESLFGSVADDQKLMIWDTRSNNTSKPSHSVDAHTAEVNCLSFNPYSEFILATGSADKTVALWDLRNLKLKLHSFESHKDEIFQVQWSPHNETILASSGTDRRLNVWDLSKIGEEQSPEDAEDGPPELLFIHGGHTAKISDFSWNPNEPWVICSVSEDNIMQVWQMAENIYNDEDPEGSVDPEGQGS
# Sequence (Q6ZN18 whole entry, further chain): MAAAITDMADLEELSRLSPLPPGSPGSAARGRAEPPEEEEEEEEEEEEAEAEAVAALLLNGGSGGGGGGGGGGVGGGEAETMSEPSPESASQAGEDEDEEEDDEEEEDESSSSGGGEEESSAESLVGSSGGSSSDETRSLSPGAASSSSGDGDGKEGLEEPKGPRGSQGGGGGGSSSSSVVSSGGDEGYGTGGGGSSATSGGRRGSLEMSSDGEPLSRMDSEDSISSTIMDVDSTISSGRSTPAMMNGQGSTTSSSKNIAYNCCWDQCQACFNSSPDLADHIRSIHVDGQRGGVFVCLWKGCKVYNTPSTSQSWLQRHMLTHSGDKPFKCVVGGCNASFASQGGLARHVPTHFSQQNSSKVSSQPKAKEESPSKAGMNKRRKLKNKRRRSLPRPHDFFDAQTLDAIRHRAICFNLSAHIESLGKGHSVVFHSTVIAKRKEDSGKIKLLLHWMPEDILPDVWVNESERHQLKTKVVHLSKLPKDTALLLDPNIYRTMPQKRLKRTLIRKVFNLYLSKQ
# Sequence (Q15910 whole entry): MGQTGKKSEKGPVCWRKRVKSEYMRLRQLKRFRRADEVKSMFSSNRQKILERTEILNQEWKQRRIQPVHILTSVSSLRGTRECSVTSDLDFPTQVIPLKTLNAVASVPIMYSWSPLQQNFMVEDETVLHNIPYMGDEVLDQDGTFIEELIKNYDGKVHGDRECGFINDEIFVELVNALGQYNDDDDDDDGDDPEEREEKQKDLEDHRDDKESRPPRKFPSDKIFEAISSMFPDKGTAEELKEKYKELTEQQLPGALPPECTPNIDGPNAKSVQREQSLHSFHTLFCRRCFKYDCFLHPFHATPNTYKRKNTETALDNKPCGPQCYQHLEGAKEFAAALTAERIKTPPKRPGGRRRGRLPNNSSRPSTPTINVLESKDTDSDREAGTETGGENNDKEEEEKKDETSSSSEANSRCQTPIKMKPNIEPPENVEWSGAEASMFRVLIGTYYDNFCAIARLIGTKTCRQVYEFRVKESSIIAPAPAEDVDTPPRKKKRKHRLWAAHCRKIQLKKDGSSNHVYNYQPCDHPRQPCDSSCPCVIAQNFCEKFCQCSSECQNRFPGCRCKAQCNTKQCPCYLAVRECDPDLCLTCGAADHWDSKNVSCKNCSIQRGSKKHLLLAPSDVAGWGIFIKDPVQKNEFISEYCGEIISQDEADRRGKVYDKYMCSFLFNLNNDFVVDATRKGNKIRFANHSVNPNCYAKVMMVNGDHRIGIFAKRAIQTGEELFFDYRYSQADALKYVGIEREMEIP
# Sequence (O75530 whole entry, further chain): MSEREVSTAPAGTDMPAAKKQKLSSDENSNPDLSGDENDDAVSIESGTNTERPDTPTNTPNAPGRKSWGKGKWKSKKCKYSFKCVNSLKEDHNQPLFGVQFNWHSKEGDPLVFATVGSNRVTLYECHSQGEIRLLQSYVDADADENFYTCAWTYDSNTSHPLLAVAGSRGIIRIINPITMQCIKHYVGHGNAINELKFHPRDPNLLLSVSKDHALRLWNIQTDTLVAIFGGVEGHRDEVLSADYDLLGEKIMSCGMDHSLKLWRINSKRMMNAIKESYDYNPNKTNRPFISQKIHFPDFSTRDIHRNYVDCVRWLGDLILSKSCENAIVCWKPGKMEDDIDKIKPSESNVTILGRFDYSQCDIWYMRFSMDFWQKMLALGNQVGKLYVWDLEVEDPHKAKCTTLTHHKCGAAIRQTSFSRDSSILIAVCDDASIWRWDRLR
# ASSAY DETAILS: EZH2/PRC2 assay (core histone, 3H-SAM)
# Assay type: biochemical
# CONDITION NOTES: 10-dose, duplicate, from 400 μM
MEASUREMENT NAME: IC50

INSERT INTO results (smiles_repr, measurement_name, result) VALUES
  ('O=C1/C(=C/c2ccccc2Br)CN(CC(=O)c2ccccc2)C/C1=C\c1ccccc1Br', 'IC50', '46 µM'),
  ('O=C1/C(=C/c2ccccc2Br)CN(CCCC(=O)c2ccccc2)C/C1=C\c1ccccc1Br', 'IC50', '68.5 µM'),
  ('O=C1/C(=C/c2ccccc2Br)CN(CCC(=O)c2ccccc2)C/C1=C\c1ccccc1Br', 'IC50', '60.6 µM'),
  ('O=C1/C(=C/c2ccccc2Br)CN(C(=O)CCc2ccccc2)C/C1=C\c1ccccc1Br', 'IC50', '11.3 µM'),
  ('O=C1/C(=C/c2ccccc2Br)CN(Cc2ccccc2)C/C1=C\c1ccccc1Br', 'IC50', '44.2 µM'),
  ('O=C1/C(=C/c2ccccc2Br)CCC/C1=C\c1ccccc1Br', 'IC50', '117 µM'),
  ('O=C1/C(=C/c2ccccc2Br)CN(C(=O)c2ccccc2)C/C1=C\c1ccccc1Br', 'IC50', '40.7 µM'),
  ('O=C1/C(=C/c2ccccc2Br)CN(C(=O)Cc2ccccc2)C/C1=C\c1ccccc1Br', 'IC50', '15.2 µM'),
  ('CN1C/C(=C\c2ccccc2Br)C(=O)/C(=C/c2ccccc2Br)C1', 'IC50', '46.7 µM'),
  ('O=C1/C(=C/c2ccccc2Br)CN(C(=O)C=Cc2ccccc2)C/C1=C\c1ccccc1Br', 'IC50', '13.9 µM');

---

# Test system: U937 cells
# ASSAY DETAILS: Cell cycle and apoptosis (sub-G1) analysis by FACS in U937 cells
# Type: cell-based, human
# CONDITION NOTES: 5 μM, 30 h
MEASUREMENT NAME: effect on cell cycle phases

INSERT INTO measurements (smiles_repr, result) VALUES
  ('O=C1/C(=C/c2ccccc2Br)CN(C(=O)Cc2ccccc2)C/C1=C\c1ccccc1Br', 'block in G2/M phase'),
  ('O=C1/C(=C/c2ccccc2Br)CN(C(=O)CCc2ccccc2)C/C1=C\c1ccccc1Br', 'block in G2/M phase'),
  ('O=C1/C(=C/c2ccccc2Br)CN(CCc2ccccc2)C/C1=C\c1ccccc1Br', 'block in G2/M phase');
